measurement-context: in DMF, 290.8 K

[
  {
    "compound": "NC(=O)CS(=O)C(c1ccccc1)c1ccccc1 (stereo unspecified)",
    "solubility (mole fraction)": 0.0656
  }
]

----------
measurement-context: in n-propanol, 316.9 K
measurement-name: solubility (mole fraction)

[
  {
    "compound": "NC(=O)CS(=O)C(c1ccccc1)c1ccccc1 (stereo unspecified)",
    "test-result": 0.00411
  }
]

----------
measurement-context: in acetonitrile, 322 K
measurement-name: solubility (mole fraction)

[
  {
    "molecule": "NC(=O)CS(=O)C(c1ccccc1)c1ccccc1 (stereo unspecified)",
    "test-result": 0.00578
  }
]

----------
measurement-context: in isopropanol, 323.5 K

[
  {
    "compound": "NC(=O)CS(=O)C(c1ccccc1)c1ccccc1 (stereo unspecified)",
    "solubility (mole fraction)": 0.00388
  }
]

----------
measurement-context: in 2-butanone, 304.7 K

[
  {
    "compound": "NC(=O)CS(=O)C(c1ccccc1)c1ccccc1 (stereo unspecified)",
    "solubility (mole fraction)": 0.00253
  }
]

----------
measurement-context: in water, 323.4 K

[
  {
    "molecule": "NC(=O)CS(=O)C(c1ccccc1)c1ccccc1 (stereo unspecified)",
    "solubility (mole fraction)": 0.000281
  }
]

----------
measurement-context: in ethyl acetate, 328.3 K
measurement-name: solubility (mole fraction)

[
  {
    "compound": "NC(=O)CS(=O)C(c1ccccc1)c1ccccc1 (stereo unspecified)",
    "measurement-name": "solubility (mole fraction)",
    "test-result": 0.00255
  }
]

----------
measurement-context: in methanol, 319.7 K
measurement-name: solubility (mole fraction)

[
  {
    "molecule": "NC(=O)CS(=O)C(c1ccccc1)c1ccccc1 (stereo unspecified)",
    "test-result": 0.00945
  }
]

----------
measurement-context: in DMF, 318 K

[
  {
    "molecule": "NC(=O)CS(=O)C(c1ccccc1)c1ccccc1 (stereo unspecified)",
    "solubility (mole fraction)": 0.103
  }
]

----------
measurement-context: in isopropanol, 317.6 K
measurement-name: solubility (mole fraction)

[
  {
    "molecule": "NC(=O)CS(=O)C(c1ccccc1)c1ccccc1 (stereo unspecified)",
    "test-result": 0.00291
  }
]

----------
measurement-context: in acetone, 320.2 K

[
  {
    "compound": "NC(=O)CS(=O)C(c1ccccc1)c1ccccc1 (stereo unspecified)",
    "solubility (mole fraction)": 0.0057
  }
]

----------
measurement-context: in water, 312.9 K
measurement-name: solubility (mole fraction)

[
  {
    "compound": "NC(=O)CS(=O)C(c1ccccc1)c1ccccc1 (stereo unspecified)",
    "measurement-name": "solubility (mole fraction)",
    "test-result": 0.000177
  }
]

----------
measurement-context: in acetone, 284 K

[
  {
    "compound": "NC(=O)CS(=O)C(c1ccccc1)c1ccccc1 (stereo unspecified)",
    "solubility (mole fraction)": 0.00175
  }
]

----------
measurement-context: in acetone, 307.5 K

[
  {
    "molecule": "NC(=O)CS(=O)C(c1ccccc1)c1ccccc1 (stereo unspecified)",
    "solubility (mole fraction)": 0.00371
  }
]

----------
measurement-context: in acetonitrile, 286.3 K

[
  {
    "molecule": "NC(=O)CS(=O)C(c1ccccc1)c1ccccc1 (stereo unspecified)",
    "solubility (mole fraction)": 0.000684
  }
]
